The reported measurements were obtained from patent US7417156B2.

tested on: RXF 393; experiment: NCI 60 cell line panel screen (SRB); type: cell-based, human; conditions: Renal Cancer, RXF 393
parameter: Log10GI50
Give the figure only, with no unit attached.

Use the examples below as a reference point.
[
  {
    "compound": "CC1CCC2C(C)C(CC(CO)CC3OC4OC5(C)CCC6C(C)CCC(C3C)C46OO5)OC3OC4(C)CCC1C32OO4 (centres unmarked) [Compound 4, bis-trioxane primary alcohol]",
    "Log10GI50": "−4.80"
  },
  {
    "compound": "CC1CCC2C(C)C(CC(COC(=O)c3cc[n+]([O-])cc3)CC3OC4OC5(C)CCC6C(C)CCC(C3C)C46OO5)OC3OC4(C)CCC1C32OO4 (centres unmarked) [Compound 13]",
    "Log10GI50": "−5.20"
  }
]

Consider the record given below.
Entry C[C@@H]1CC[C@H]2[C@@H](C)C(=O)O[C@@H]3O[C@]4(C)CC[C@@H]1[C@]32OO4 [Artemisinin] : reported Log10GI50 = ?
−4.08
